Test: Selectivity index, ratio of IC50 for African green monkey Vero cells to IC50 for CQ sensitive Plasmodium falciparum 3D7
Assay type: toxicity
Conditions: read-out: Ratio IC50
molecules and their reported selectivity ratio
// return a plain number; no unit text

O=C(Cn1cc(COc2ccc(Br)cc2)nn1)NCCCNc1ccnc2cc(Cl)ccc12 :: 714
O=C(Cn1cc(COc2ccc(Cl)cc2)nn1)NCCNc1ccnc2cc(Cl)ccc12 :: 714

Query block: # query: selectivity ratio of entry `O=C(Cn1cc(COc2ccc(Br)cc2)nn1)NCCNc1ccnc2cc(Cl)ccc12`
Result block: 714

###

compounds and their reported pIC50
Assay: Antiproliferative activity against HUVEC cells
Type: toxicity, cell-based
Details: human
// scale note: pIC50 = -log10(conc_M); give the bare number

# annotated cases, reported pIC50 shown
COc1ccc(Nc2cc(/C=C/c3ccc([N+](=O)[O-])cc3)nc3cc(OC)c(OC)c(OC)c23)cc1OC :: 5.11
COc1ccc(/C=C/c2cc(Nc3cc(OC)c(OC)c(OC)c3)c3c(OC)c(OC)c(OC)cc3n2)cc1OC :: 5.11

Query block: # query: pIC50 of entry `COc1ccc(/C=C\c2cc(OC)c(OC)c(OC)c2)cc1O`
Result block: 5.81

###

System: Huh-7
Experiment: Cytotoxicity against human Huh-7 cells
Format: functional, cell-based
MEASURED QUANTITY: IC50 (µM)
Express the result in µM but write the number alone.

Query block: # query: IC50 of entry `COc1ccc(/C=N/NC(=O)c2ccc(Nc3ccnc4ccccc34)cc2)cc1OC`
Result block: 6.3

###

Biological target: Serine/threonine-protein kinase mTOR (Homo sapiens, UniProt P42345)
MEASURED QUANTITY: IC50 (nM)
Express the result in nM but write the number alone.

Query block: Form field: IC50 recorded for `Cc1c(Cc2cccc(N(C)S(=O)(=O)CCCNCCCC(=O)N3CCN(c4ccc(Nc5c(C(N)=O)cnc6ccc(-c7cnc8ccccc8c7)cc56)cc4C(F)(F)F)CC3)c2)c(=O)oc2cc(OC(=O)N(C)C)ccc12` with Serine/threonine-protein kinase mTOR (Homo sapiens, UniProt P42345) (enter value)
Result block: 190

###

Values of pIC50 reported for Epidermal growth factor receptor (Homo sapiens, UniProt P00533) appear below.
// scale note: pIC50 = -log10(conc_M); give the bare number

# annotated cases, reported pIC50 shown
COc1ccc2nc(Cl)c(/C=C/C(=O)c3ccc(C)cc3)cc2c1 :: 7.43
COc1ccc2nc(Cl)c(C3CC(c4ccc(C)cc4)=NN3c3nc(-c4ccc(F)cc4)cs3)cc2c1 (stereo not drawn) :: 7.50

// below: pIC50 requested for another compound
Query block: Form field: pIC50 recorded for COc1ccc2nc(Cl)c(C3CC(c4ccc(C)cc4)=NN3c3nc(C)c(C(=O)Nc4ccccc4)s3)cc2c1 (stereo not drawn) with Epidermal growth factor receptor (Homo sapiens, UniProt P00533) (enter value)
Result block: 7.37

###

compounds and their reported inhibition
Biological target: Lysine-specific demethylase 6B (Homo sapiens) (UniProt O15054)
Sequence (O15054 whole entry): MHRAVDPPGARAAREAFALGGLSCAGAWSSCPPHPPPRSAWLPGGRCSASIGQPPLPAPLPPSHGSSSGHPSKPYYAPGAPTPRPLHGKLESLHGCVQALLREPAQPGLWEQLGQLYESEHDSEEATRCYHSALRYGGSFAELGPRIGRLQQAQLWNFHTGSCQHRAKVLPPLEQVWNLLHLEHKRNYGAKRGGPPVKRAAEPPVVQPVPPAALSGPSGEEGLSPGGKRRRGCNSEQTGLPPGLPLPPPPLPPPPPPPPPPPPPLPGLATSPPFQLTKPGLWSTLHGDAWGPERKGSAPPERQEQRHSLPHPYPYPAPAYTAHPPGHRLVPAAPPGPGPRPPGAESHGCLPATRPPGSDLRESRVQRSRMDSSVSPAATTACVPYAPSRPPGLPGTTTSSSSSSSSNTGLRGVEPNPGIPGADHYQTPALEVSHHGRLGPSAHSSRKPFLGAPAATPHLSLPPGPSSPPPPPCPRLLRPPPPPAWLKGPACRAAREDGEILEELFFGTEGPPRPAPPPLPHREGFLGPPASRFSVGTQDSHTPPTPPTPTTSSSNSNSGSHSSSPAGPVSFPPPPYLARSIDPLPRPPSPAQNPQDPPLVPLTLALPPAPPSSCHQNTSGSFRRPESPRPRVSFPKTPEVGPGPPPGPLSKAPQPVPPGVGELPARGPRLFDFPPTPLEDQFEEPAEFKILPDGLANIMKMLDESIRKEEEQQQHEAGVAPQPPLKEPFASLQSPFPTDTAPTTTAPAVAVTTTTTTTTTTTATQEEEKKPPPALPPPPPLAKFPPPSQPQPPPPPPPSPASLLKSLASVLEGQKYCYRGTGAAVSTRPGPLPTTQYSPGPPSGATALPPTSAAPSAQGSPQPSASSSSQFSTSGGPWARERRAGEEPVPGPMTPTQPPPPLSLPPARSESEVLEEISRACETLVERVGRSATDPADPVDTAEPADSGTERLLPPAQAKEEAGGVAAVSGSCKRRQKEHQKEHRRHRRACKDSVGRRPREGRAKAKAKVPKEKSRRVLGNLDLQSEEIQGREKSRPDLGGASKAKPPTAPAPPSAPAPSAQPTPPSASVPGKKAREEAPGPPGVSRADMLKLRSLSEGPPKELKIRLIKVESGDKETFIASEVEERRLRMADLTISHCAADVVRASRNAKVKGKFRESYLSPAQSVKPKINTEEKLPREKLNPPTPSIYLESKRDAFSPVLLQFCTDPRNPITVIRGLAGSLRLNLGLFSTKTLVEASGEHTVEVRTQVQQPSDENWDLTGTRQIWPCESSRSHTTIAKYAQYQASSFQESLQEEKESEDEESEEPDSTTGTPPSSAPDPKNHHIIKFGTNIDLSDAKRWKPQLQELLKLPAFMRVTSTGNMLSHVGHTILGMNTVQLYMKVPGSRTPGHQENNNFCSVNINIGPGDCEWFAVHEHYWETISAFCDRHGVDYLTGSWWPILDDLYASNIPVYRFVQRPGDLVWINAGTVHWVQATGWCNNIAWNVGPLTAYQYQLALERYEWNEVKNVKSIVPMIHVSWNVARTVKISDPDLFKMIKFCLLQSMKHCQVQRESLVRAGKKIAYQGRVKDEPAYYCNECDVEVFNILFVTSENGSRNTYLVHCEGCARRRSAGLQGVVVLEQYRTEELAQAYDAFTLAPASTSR
Test: Inhibition of JMJD3 (unknown origin) at 25 uM relative to control
Express the result in % but write the number alone.

# annotated cases, reported inhibition shown
COc1ccc(F)cc1-c1cnc2c(C(=O)O)ccc(C(=O)O)c2c1 :: 0
O=C(O)c1ccc(-c2cnc3c(C(=O)O)ccc(C(=O)O)c3c2)s1 :: 0
COc1cc(-c2cnc3c(C(=O)O)ccc(C(=O)O)c3c2)c(OC)nn1 :: 0
COc1ncc(-c2cnc3c(C(=O)O)ccc(C(=O)O)c3c2)c(OC)n1 :: 90
NS(=O)(=O)c1ccc(-c2cnc3c(C(=O)O)ccc(C(=O)O)c3c2)cc1 :: 0

// below: inhibition requested for another compound
Query block: # query: inhibition of entry `COc1cc(-c2cnc3c(C(=O)O)ccc(C(=O)O)c3c2)ccc1F`
Result block: 0

###

Molecular target: Dual specificity mitogen-activated protein kinase kinase 1 (Homo sapiens, UniProt Q02750)
Sequence (Q02750 whole entry): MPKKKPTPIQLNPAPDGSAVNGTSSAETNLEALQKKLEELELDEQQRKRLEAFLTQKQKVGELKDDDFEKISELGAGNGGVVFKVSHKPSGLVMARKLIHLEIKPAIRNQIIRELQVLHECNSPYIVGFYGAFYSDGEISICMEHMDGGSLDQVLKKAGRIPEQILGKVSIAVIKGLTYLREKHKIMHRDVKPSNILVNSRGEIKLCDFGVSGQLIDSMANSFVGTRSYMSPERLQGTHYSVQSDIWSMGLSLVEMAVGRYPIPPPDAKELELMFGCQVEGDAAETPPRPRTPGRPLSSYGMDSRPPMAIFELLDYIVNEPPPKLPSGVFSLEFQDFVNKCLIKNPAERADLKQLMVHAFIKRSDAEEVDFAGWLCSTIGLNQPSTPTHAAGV
Assay: Inhibition of MEK1 (unknown origin)
MEASURED QUANTITY: pIC50
// scale note: pIC50 = -log10(conc_M); give the bare number

Query block: # query: pIC50 of entry `Cc1c(Cc2cccc(N(C)S(=O)(=O)CCCNCCCC(=O)N3CCN(c4ccc(Nc5c(C(N)=O)cnc6ccc(-c7cnc8ccccc8c7)cc56)cc4C(F)(F)F)CC3)c2)c(=O)oc2cc(OC(=O)N(C)C)ccc12`
Result block: 6.01

###

Tested on: A2780
Experiment: Antiproliferative activity against cisplatin resistant human A2780 cells
Format: functional, cell-based
MEASURED QUANTITY: IC50 (nM)
Express the result in nM but write the number alone.

COc1ccc(/C=C/c2cc(Nc3cc(OC)c(OC)c(OC)c3)c3c(OC)c(OC)c(OC)cc3n2)cc1OC :: 500

Query block: Form field: IC50 recorded for `COc1ccc(Nc2cc(/C=C/c3ccc([N+](=O)[O-])cc3)nc3cc(OC)c(OC)c(OC)c23)cc1OC` with A2780 (enter value)
Result block: 1130

###

System: T-24
Assay: Antiproliferative activity against human T24 cells
Assay type: functional, cell-based
MEASURED QUANTITY: IC50 (nM)
Express the result in nM but write the number alone.

Query block: # query: IC50 of entry `COc1cc(N(CCCSC(=S)N2CCN(C(C)=O)CC2)S(=O)(=O)c2cccc3cccnc23)cc(OC)c1OC`
Result block: 2600

###

Target: Hepatocyte growth factor receptor (Homo sapiens)
Sequence (P08581 whole entry): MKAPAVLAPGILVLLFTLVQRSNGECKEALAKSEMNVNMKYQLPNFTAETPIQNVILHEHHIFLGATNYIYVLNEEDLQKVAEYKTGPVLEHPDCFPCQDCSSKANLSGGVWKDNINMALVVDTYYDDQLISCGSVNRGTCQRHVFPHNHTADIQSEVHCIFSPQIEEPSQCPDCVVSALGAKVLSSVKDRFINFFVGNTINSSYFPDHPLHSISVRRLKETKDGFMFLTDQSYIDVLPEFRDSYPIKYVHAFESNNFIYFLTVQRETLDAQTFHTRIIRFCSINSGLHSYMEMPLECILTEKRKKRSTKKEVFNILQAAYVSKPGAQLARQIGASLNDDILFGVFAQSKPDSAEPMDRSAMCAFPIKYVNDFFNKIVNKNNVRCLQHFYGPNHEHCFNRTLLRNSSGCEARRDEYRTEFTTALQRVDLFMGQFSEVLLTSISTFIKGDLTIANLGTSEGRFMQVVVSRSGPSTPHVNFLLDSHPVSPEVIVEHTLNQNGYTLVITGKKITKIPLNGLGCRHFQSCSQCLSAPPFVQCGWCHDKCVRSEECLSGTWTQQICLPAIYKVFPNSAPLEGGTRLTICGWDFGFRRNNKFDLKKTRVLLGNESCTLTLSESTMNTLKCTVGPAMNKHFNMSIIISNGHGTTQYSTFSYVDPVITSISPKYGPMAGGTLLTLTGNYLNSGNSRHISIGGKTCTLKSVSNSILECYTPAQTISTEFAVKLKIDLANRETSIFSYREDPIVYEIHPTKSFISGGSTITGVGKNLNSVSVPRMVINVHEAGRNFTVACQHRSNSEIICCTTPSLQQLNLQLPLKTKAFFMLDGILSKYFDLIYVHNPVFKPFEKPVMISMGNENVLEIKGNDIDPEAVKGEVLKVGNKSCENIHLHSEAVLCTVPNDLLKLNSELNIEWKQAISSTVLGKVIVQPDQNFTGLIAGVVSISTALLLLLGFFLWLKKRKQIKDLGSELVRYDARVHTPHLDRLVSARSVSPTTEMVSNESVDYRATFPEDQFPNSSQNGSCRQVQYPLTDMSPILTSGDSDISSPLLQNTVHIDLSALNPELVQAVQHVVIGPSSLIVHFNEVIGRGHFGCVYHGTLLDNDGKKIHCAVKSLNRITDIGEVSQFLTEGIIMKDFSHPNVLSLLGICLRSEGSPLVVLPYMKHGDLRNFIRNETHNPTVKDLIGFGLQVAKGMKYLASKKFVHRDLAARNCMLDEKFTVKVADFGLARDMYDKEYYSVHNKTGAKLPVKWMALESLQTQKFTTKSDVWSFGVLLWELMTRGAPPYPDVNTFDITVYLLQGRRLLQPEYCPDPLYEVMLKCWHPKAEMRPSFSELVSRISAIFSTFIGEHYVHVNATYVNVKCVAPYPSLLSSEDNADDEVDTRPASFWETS
Test: Inhibition of c-Met (unknown origin)
MEASURED QUANTITY: pIC50
// scale note: pIC50 = -log10(conc_M); give the bare number

COc1cc2nccc(Oc3ccc(NC(=O)C4(C(=O)Nc5c(F)cc(F)cc5F)CC4)cc3)c2cc1Oc1ccc(N)cn1 :: 7.72
Cn1cc(-c2ccc3nnc(C(F)(F)c4ccc5ncccc5c4)n3n2)cn1 :: 8.77

Query block: # query: pIC50 of entry `COc1cc2nccc(Oc3ccc(NC(=O)C4(C(=O)Nc5ccc(F)cc5)CC4)cc3)c2cc1O`
Result block: 7.72

###

System: MGC-803
Assay: Antiproliferative activity against human MGC-803 cells
MEASURED QUANTITY: IC50 (µM)
Express the result in µM but write the number alone.

Query block: # query: IC50 of entry `O=c1[nH]cc(F)c(=O)[nH]1`
Result block: 10.4

###

Test system: G-361
Test: Antiproliferative activity against human G-361 cells
Type: functional, cell-based
MEASURED QUANTITY: IC50
# include the unit after the value

Query block: # query: IC50 of entry `COc1cccc2c1C(=O)c1c(O)c3c(c(O)c1C2=O)C[C@@](O)(C(=O)CO)C[C@@H]3O[C@H]1C[C@H](N)[C@H](O)[C@H](C)O1`
Result block: 2440 nM

###

molecules and their reported IC50
Test system: HeLa
Test: Antiproliferative activity against human HeLa cells
Assay type: functional, cell-based
Express the result in nM but write the number alone.

# annotated cases, reported IC50 shown
CNC(=O)c1sc(N2N=C(c3ccc(C)cc3)CC2c2cc3cc(OC)ccc3nc2Cl)nc1C (centres undefined) :: 38
Cc1ccc(Nc2nnc(-c3cc(-c4ccc(Br)cc4)nc4ccccc34)o2)cc1 :: 50
COc1ccc2nc(Cl)c(C3CC(c4ccc(C)cc4)=NN3c3nc(-c4ccc(C)cc4)cs3)cc2c1 (centres undefined) :: 38
COc1ccc2nc(O)c(/C=C/C(=O)c3ccc(C)cc3)cc2c1 :: 38
CCONC(=O)c1sc(N2N=C(c3ccc(C)cc3)CC2c2cc3cc(OC)ccc3nc2Cl)nc1C (centres undefined) :: 38
COc1ccc2nc(Cl)c(C3CC(c4ccc(C)cc4)=NN3c3nc(-c4ccc(Cl)cc4)cs3)cc2c1 (centres undefined) :: 38
N#CN=C(NCCCCCCOc1ccc(Cl)cc1)Nc1ccncc1 :: 40
COc1ccc2nc(Cl)c(C3CC(c4ccc(C)cc4)=NN3c3nc(C)c(/N=N/c4ccccc4)s3)cc2c1 (centres undefined) :: 38

// below: IC50 requested for another molecule
Query block: # query: IC50 of entry `COc1ccc2nc(-c3ccc(Br)cc3)cc(-c3nnc(Nc4ccc([N+](=O)[O-])cc4)o3)c2c1`
Result block: 50

###

Test system: MDA-MB-231
Assay: Antiproliferative activity against human MDA-MB-231 cells
Format: functional, cell-based
compounds and their reported pIC50
// scale note: pIC50 = -log10(conc_M); give the bare number

Cc1ccc(Nc2nnc(-c3cc(-c4ccc(Br)cc4)nc4ccccc34)o2)cc1 :: 6.27

// below: pIC50 requested for another compound
Query block: # query: pIC50 of entry `COc1ccc2nc(-c3ccc(Br)cc3)cc(-c3nnc(Nc4ccc([N+](=O)[O-])cc4)o3)c2c1`
Result block: 6.27

###

Tested on: Plasmodium falciparum
Test: microbe, parasite or virus in culture
Details: NF54
Description: Antimalarial activity against CQ-sensitive Plasmodium falciparum NF54
The label yes (1) is reserved for IC50 strictly under 20 nM; no (0) covers values equal to or above it.

CC1(C)CC(NCc2cc3cccc(Cl)c3nc2N2CCCC2)CCO1 (centres undefined) :: no (0)

Query block: Consider `C#Cc1ccc(-c2cn(CCNc3ccnc4cc(Cl)ccc34)nn2)c(F)c1` . Does its IC50 lie strictly below 20 nM?
Result block: no (0)

Query block: Consider COc1ccc2nccc([C@@H](O)C3CC4CCN3CC4c3ccc(C(F)(F)F)cc3)c2c1 (mixture of isomers) . Does its IC50 lie strictly below 20 nM?
Result block: yes (1)

Query block: Consider Cc1cccc2cc(CNC3CCOC(C)(C)C3)c(N3CCCC3)nc12 (centres undefined) . Does its IC50 lie strictly below 20 nM?
Result block: no (0)

Query block: Consider `C=C[C@@H]1CN2CC[C@@H]1C[C@@H]2[C@@H](O)c1ccnc2ccc(OC)cc12` . Does its IC50 lie strictly below 20 nM?
Result block: no (0)

Query block: Consider COc1ccc(C2CN3CCC2CC3[C@H](O)c2ccnc3ccc(OC)cc23)cc1 (mixture of isomers) . Does its IC50 lie strictly below 20 nM?
Result block: yes (1)
